Cited source: paper PMC11821258

# System: human breast cancer MCF-7
# method-notes: Antiproliferative activity, SRB assay, 72 h
# Type: cell-based
# assay-conditions: Homo sapiens, MCF7; MCF-7, 72 h, SRB; read-out: IC50
# Method: The tested compounds were dissolved in DMSO (dimethyl sulfoxide) to a concentration of 10 mg/mL and then were diluted in the culture medium to reach the final concentrations. […] The IC50 values in µg/mL were calculated to µM. The cytotoxicity assay was performed after the cultured cells were exposed to the tested agents for 72 h using the authomatic Washer dyspenser EL406, BioTek. […] The absorbance (at 540 nm) was measured on a Synergy H4 photometer (BioTek Instruments, Winooski, VT, USA). […]
// values below are reported IC50

Need IC50, item C#CC(=O)OC[C@]12CC[C@@H](C(=C)C)C1C1CCC3[C@@]4(C)CC[C@H](OC(=O)CCC(=O)O)C(C)(C)C4CC[C@@]3(C)[C@]1(C)CC2 (some centres unmarked)
16 µM

Would you kindly repeat that for C#CCCC(=O)OC[C@]12CC[C@@H](C(=C)C)C1C1CCC3[C@@]4(C)CC[C@H](OC(=O)CCC(=O)O)C(C)(C)C4CC[C@@]3(C)[C@]1(C)CC2 (some centres unmarked) ?
11.4 µM

Follow-up item: C#CC(=O)OC[C@]12CC[C@@H](C(=C)C)C1C1CCC3[C@@]4(C)CC[C@H](OC(=O)CC(C)(C)CC(=O)O)C(C)(C)C4CC[C@@]3(C)[C@]1(C)CC2 (some centres unmarked)
16.5 µM

# iterate: C#CCCC(=O)OC[C@]12CC[C@@H](C(=C)C)C1C1CCC3[C@@]4(C)CC[C@H](OC(=O)CC(C)(C)C(=O)O)C(C)(C)C4CC[C@@]3(C)[C@]1(C)CC2 (some centres unmarked)
12.3 µM

Now consider C#CC(=O)OC[C@]12CC[C@@H](C(=C)C)C1C1CCC3[C@@]4(C)CC[C@H](OC(=O)CC(C)(C)C(=O)O)C(C)(C)C4CC[C@@]3(C)[C@]1(C)CC2 (some centres unmarked) .
19.4 µM
